test system: DNB aptamer (RNA, aptamer) GGUGCCUUAUUCCGGACGCCGGGCCCGAAUGCUGCUACGGCAGUCGAAGACAACAUCGCGCCCUUCGGAGGCACC; test: fluorescence increase titration; conditions: 125 mM KCl, 5 mM MgCl2; 20 mM Hepes pH 7.4, 25°C; probe 100 nM
compounds and their reported log10(KD)
recordedMetric: log10(KD) (log10 of the value in µM)

CN(C)c1ccc2c(-c3ccc(C(=O)NCCOCCOCCNc4ccc([N+](=O)[O-])cc4[N+](=O)[O-])cc3C(=O)[O-])c3ccc(=[N+](C)C)cc-3oc2c1 : -0.46
N=c1ccc2c(-c3ccc(C(=O)NCCOCCOCCNc4ccc([N+](=O)[O-])cc4[N+](=O)[O-])cc3C(=O)O)c3ccc(N)cc3oc-2c1 : 0.65
CCN(CC)c1ccc2c(-c3ccc(S(=O)(=O)NCCOCCOCCNc4ccc([N+](=O)[O-])cc4[N+](=O)[O-])cc3S(=O)(=O)[O-])c3ccc(=[N+](CC)CC)cc-3oc2c1 : -0.10
O=C(NCCOCCOCCNc1ccc([N+](=O)[O-])cc1[N+](=O)[O-])c1ccc(-c2c3ccc(=O)cc-3oc3cc(O)ccc23)c(C(=O)O)c1 : 0.93
O=[N+]([O-])c1ccc(NCCOCCOCCNS(=O)(=O)c2ccc(C3=c4cc5c6c(c4Oc4c3cc3c7c4CCCN7CCC3)CCC[N+]=6CCC5)c(S(=O)(=O)[O-])c2)c([N+](=O)[O-])c1 : 1.26
